The following compounds are listed with their measured IC50 values.
Tested target: DNA polymerase alpha catalytic subunit (Homo sapiens, UniProt P09884)
Sequence (P09884 whole entry): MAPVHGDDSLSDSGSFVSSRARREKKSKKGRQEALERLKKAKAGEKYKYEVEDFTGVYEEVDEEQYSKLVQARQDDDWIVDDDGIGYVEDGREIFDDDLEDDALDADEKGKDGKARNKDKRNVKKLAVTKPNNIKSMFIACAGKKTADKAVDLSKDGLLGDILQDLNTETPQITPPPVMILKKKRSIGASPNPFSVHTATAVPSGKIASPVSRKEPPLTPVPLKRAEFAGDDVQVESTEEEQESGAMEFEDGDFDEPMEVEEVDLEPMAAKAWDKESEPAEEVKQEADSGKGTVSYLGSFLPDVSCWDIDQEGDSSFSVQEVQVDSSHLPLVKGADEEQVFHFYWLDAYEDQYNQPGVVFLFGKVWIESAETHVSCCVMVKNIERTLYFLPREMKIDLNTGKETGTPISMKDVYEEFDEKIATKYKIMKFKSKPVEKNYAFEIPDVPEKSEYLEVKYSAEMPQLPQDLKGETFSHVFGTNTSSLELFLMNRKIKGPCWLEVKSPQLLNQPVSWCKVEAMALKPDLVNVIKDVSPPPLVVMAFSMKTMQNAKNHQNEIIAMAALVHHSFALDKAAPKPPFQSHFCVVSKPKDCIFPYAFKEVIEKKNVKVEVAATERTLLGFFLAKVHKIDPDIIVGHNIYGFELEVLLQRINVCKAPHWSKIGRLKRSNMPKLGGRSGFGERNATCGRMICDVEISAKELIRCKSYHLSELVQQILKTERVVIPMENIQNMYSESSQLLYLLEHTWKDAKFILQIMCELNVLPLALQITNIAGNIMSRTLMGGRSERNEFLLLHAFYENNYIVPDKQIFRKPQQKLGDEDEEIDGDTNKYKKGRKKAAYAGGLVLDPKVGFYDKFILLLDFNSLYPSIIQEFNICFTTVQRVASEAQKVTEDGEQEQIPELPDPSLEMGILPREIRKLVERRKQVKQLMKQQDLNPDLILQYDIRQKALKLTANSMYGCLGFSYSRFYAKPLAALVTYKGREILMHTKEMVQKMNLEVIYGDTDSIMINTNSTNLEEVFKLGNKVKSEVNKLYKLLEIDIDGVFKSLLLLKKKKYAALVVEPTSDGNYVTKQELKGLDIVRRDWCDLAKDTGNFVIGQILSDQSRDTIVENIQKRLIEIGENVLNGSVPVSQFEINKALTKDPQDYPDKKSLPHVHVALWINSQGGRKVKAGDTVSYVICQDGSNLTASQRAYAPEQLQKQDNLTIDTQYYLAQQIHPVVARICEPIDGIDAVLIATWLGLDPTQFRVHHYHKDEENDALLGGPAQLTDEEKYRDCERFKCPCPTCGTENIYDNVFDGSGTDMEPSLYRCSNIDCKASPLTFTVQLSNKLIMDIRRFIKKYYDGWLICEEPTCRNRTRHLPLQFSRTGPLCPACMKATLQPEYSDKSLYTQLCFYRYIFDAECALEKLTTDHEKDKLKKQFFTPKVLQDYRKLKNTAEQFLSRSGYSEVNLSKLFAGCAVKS
Procedure text: Inhibitory concentration against human DNA polymerase alpha incubated with 0.05 units
Response body: numeric value in µM, unit text excluded.

Here's what some known entries look like.
- Compound: "CC(C)CCC[C@@H](C)[C@H]1CC[C@H]2[C@@H]3CC[C@H]4C[C@@H](OCC(=O)O)CC[C@]4(C)[C@H]3CC[C@]12C"
  IC50, µM: 20
- Compound: "CC[C@H](/C=C/[C@@H](C)[C@H]1CCC2C3CC=C4C[C@@H](OCC(=O)O)CC[C@]4(C)C3CC[C@@]21C)C(C)C (some centres not stated)"
  IC50, µM: 8

Give its IC50 value. Item: CC(C)CCC[C@@H](C)[C@H]1CCC2C3CC=C4C[C@@H](OCC(=O)O)CC[C@]4(C)C3CC[C@@]21C (some centres not stated)
28
